tested_system: human PKR1 receptors (Homo sapiens (Human))
method_notes: PKR1 antagonist assay: block of PK1-mediated intracellular calcium release (FLIPR Tetra)
conditions: RBL2H3 cells expressing human PKR1; stimulation with PK1 at EC80; calcium fluorescence
pIC50: −log10 of the molar value. Structures can show the parent of a compound that is named as a salt.
experimental_endpoint: pIC50

Below, each entry is followed by its recorded pIC50 result.
Given CCc1cc(C(=O)N2CCCC(c3ccc(Cl)cc3C(F)(F)F)C2)ccn1 (stereo not shown) , state its recorded pIC50.
6.55

Given Cc1ccc(C2CCCN(C(=O)c3ccnc(N4CC(O)C4)c3)C2)cc1 (stereo not shown) , state its recorded pIC50.
5.07

Given CCOc1cc(Cl)ccc1C1CCCN(C(=O)c2ccnc(N(C)C)c2)C1 (stereo not shown) , state its recorded pIC50.
7.00

Given CNc1cc(C(=O)N2CCCC(c3ccc(OC)cc3C(F)(F)F)C2)ccn1 (stereo not shown) [Example 64, formate] , state its recorded pIC50.
7.30

[I] Cc1ccc(C2CCCN(C(=O)c3ccnc(N4CCCC4)c3)C2)cc1 (stereo not shown)
[II] COc1ccc(C2CCCN(C(=O)c3ccnc(N(C)C)c3)C2)cc1 (stereo not shown)
[III] Cc1cc(C(=O)N2CCCC(c3ccc(Cl)cc3)C2)cc(C)n1 (stereo not shown)
[IV] CN(C)c1cc(C(=O)N2CCCC(c3ccc(Cl)cc3)C2)cnn1 (stereo not shown)
[V] CN(C)c1cc(C(=O)N2CCCC(c3ccccc3C(F)(F)F)C2)ccn1 (stereo not shown)
Write the entries in order, lowest recorded pIC50 first. Reply with the labels, ordered as the question asks.
I, III, IV, II, V

[a] CN(C)c1cc(C(=O)N2CCCC(c3ccccc3OC(F)(F)F)C2)ccn1 (stereo not shown)
[b] COc1ccc(C2CCCCN(C(=O)c3ccnc(N(C)C)c3)C2)cc1 (stereo not shown)
Please indicate which has the smaller reported pIC50: a , or b . Identify your pick by its label.
a

----------
tested_system: UniProt:Q8TCW9
method_notes: PKR1 antagonist assay: block of PK1-mediated intracellular calcium release (FLIPR Tetra)
conditions: RBL2H3 cells expressing human PKR1; stimulation with PK1 at EC80; calcium fluorescence
pIC50: −log10 of the molar value.
experimental_endpoint: pIC50

Given COc1ccc(C2CCCCN(C(=O)c3cnnc(N(C)C)c3)C2)cc1 (stereo not shown) [Example 114] , state its recorded pIC50.
5.84

Given CNc1cc(C(=O)N2CCCCC(c3ccc(OC)cc3)C2)cnn1 (stereo not shown) [Example 112] , state its recorded pIC50.
5.90

[a] Cc1cc(Cl)ccc1C1(O)CCCN(C(=O)c2ccnc(N(C)C)c2)C1 (stereo not shown) [Example 116]
[b] Cc1cc(Cl)ccc1C1CCCN(C(=O)c2cnn(C)c2)C1 (stereo not shown) [Example 94]
API: POST /compare with a and b ; response names the item with higher pIC50. Identify your pick by its label.
b

----------
tested_system: human PKR1 receptors (Homo sapiens (Human), UniProt Q8TCW9)
Sequence (Q8TCW9 whole entry): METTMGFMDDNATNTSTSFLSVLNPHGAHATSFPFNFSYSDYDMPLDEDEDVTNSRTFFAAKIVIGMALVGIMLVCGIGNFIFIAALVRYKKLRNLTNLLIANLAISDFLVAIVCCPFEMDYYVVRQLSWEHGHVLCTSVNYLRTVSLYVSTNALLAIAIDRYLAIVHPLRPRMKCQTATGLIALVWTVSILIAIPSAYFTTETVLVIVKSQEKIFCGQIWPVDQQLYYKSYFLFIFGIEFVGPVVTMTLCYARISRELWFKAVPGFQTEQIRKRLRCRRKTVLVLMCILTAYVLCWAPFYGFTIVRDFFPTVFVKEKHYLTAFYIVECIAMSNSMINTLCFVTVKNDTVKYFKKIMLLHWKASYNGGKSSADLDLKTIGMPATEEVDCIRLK
method_notes: PKR1 antagonist assay: block of PK1-mediated intracellular calcium release (FLIPR Tetra)
conditions: RBL2H3 cells expressing human PKR1; stimulation with PK1 at EC80; calcium fluorescence
experimental_endpoint: IC50 (µM)

[1] COc1cc(C(=O)N2CCCC(c3ccc(Cl)cc3C)C2)ccn1 (centres unmarked) [Example 32]
[2] CCc1cc(C(=O)N2CCCC(c3ccc(Cl)cc3C)C2)ccn1 (centres unmarked) [Example 4]
Please indicate which has the smaller reported IC50: 1 , or 2 . Identify your pick by its label.
2

----------
tested_system: human PKR1 receptors (Homo sapiens (Human))
method_notes: PKR1 antagonist assay: block of PK1-mediated intracellular calcium release (FLIPR Tetra)
conditions: RBL2H3 cells expressing human PKR1; stimulation with PK1 at EC80; calcium fluorescence
experimental_endpoint: IC50 (nM)

Below, each entry is followed by its recorded IC50 result.
Write down the reported IC50 of CN(C)c1cc(C(=O)N2CCCCC(c3ccccc3)C2)ccn1 (stereo not drawn) , test system: human PKR1 receptors (Homo sapiens (Human)).
2970

Write down the reported IC50 of O=C(c1ccnc(C2CC2)c1)N1CCCC(c2ccc(Cl)cc2)C1 (stereo not drawn) , test system: human PKR1 receptors (Homo sapiens (Human)).
1740

Write down the reported IC50 of CNc1cc(C(=O)N2CCCC(c3ccccc3OC)C2)ccn1 (stereo not drawn) , test system: human PKR1 receptors (Homo sapiens (Human)).
440

[I] COc1ccc(C2CCCN(C(=O)c3cn(C)nc3C)C2)c(C)c1 (stereo not drawn)
[II] Cc1ccc(C2CCCN(C(=O)c3ccnc(N(C)C(C)C)c3)C2)cc1 (stereo not drawn)
[III] CNc1cc(C(=O)N2CCCC(c3ccc(Cl)cc3C)C2)ccn1 (stereo not drawn)
[IV] CCn1cc(C(=O)N2CCCC(c3ccc(Cl)cc3)C2)cn1 (stereo not drawn)
[V] CCc1cc(C(=O)N2CCCC(c3ccccc3OC)C2)ccn1 (stereo not drawn)
Write the entries in order, lowest recorded IC50 first. Reply with the labels, ordered as the question asks.
III, IV, I, V, II

[P] CCc1cc(C(=O)N2CCCC(c3ccccc3C(F)(F)F)C2)ccn1 (stereo not drawn)
[Q] COc1cccc([C@@H]2CCCN(C(=O)c3ccnc(N(C)C)c3)C2)c1
[R] Cn1cc(C(=O)N2CCCC(c3ccc(Cl)cc3C(F)(F)F)C2)c(N)n1 (single isomer, unassigned) [Example 119]
[S] Cc1cc(Cl)ccc1C1CCCN(C(=O)c2cnn(C)c2N)C1 (stereo not drawn)
Order field: IC50 | Direction: descending (largest first) Reply with the labels, ordered as the question asks.
Q, P, R, S
(Q: 5510 nM, P: 820 nM, R: 330 nM, S: 150 nM)

[1] CC(C)n1cc(C(=O)N2CCCC(c3ccc(Cl)cc3)C2)cn1 (stereo not drawn)
[2] CN(C)c1cc(C(=O)N2CCCC(c3ccc(Cl)cc3)C2)ccn1 (stereo not drawn)
Please indicate which has the smaller reported IC50: 1 , or 2 . Identify your pick by its label.
2
(2: 270 nM, 1: 960 nM)

Source: patent US9790201B2
